// reported IC50 for each item listed
subjectOfTest: KRAS G13C (Homo sapiens (Human), UniProt P01116+P62937, G13C)
Sequence (P01116 other isoform, or with tags, fused parts or gaps G13C): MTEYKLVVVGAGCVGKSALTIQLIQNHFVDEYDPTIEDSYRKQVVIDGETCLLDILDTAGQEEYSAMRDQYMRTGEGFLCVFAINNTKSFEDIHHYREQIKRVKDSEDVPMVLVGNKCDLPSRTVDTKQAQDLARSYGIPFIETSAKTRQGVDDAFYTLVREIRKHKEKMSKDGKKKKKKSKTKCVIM
Sequence (P62937 whole entry): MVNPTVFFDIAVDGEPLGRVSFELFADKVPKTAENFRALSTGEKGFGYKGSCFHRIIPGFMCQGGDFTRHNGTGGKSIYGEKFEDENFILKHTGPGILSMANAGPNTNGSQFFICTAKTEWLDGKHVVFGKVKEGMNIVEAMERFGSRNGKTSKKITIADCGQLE
protocolNotes: Ras-Raf disruption/FRET/MOA assay (BRAF RBD, Cyclophilin A)
Assay type: biochemical
assayContext: read-out: KRAS G13C FRET IC50

Known results for compounds:
compound: CCn1c(-c2cccnc2[C@H](C)OC)c2c3cc(ccc31)-c1cc(O)cc(c1)C[C@H](NC(=O)[C@H](C(C)C)N(C)C(=O)C13CCC(CO1)C3)C(=O)N1CCC[C@H](N1)C(=O)OCC(C)(C)C2 [Compound A411]
IC50: 100 to 1000 nM

compound: CCn1c(-c2cccnc2[C@H](C)OC)c2c3cc(ccc31)-c1csc(n1)C[C@H](NC(=O)[C@H](C(C)C)N(C)C(=O)N1CC([C@H](C)COC)C1)C(=O)N1CCC[C@H](N1)C(=O)OCC(C)(C)C2 [Compound A533]
IC50: 100 to 1000 nM

compound: CCn1c(-c2cc(N3CCN(C)CC3)cnc2[C@H](C)OC)c2c3cc(ccc31)-c1csc(n1)C[C@H](NC(=O)[C@H](C(C)C)N(C)C(=O)N1CC(OC)C1)C(=O)N1CCC[C@H](N1)C(=O)OCC(C)(C)C2 [Compound A466]
IC50: 100 to 1000 nM

compound: CCn1c(-c2cccnc2[C@H](C)OC)c2c3cc(ccc31)-c1csc(n1)[C@@H](OC)[C@H](NC(=O)[C@H](C(C)C)N(C)C(=O)N(C)C)C(=O)N1CCC[C@H](N1)C(=O)OCC(C)(C)C2 [Compound A598]
IC50: 100 to 1000 nM

compound: CCn1c(-c2cccnc2[C@H](C)OC)c2c3cc(ccc31)-c1cc(O)cc(c1)C[C@H](NC(=O)[C@H](C(C)C)N(C)C(=O)C13CC(CO1)C3)C(=O)N1CCC[C@H](N1)C(=O)OCC(C)(C)C2 [Compound A406]
IC50: 10 to 100 nM

Input: Return IC50 for the following compound: CCn1c(-c2cc(N3CCN(C)CC3)cnc2[C@H](C)OC)c2c3cc(ccc31)-c1csc(n1)C[C@H](NC(=O)[C@H](C(C)C)N(C)C(=O)N1CC(C3COC3)C1)C(=O)N1CCC[C@H](N1)C(=O)OCC(C)(C)C2 [Compound A465]
Output: 10 to 100 nM

---

subjectOfTest: KRAS G13C (Homo sapiens (Human), UniProt P01116+P62937, G13C)
protocolNotes: Ras-Raf disruption/FRET/MOA assay (BRAF RBD, Cyclophilin A)
Assay type: biochemical
assayContext: read-out: KRAS G13C FRET IC50
pIC50: −log10 of the molar value.
valueType: pIC50

Look over these answered cases.
molecule: CCn1c(-c2cccnc2[C@H](C)OC)c2c3cc(ccc31)-c1cc(cc(S(C)(=O)=O)c1)C[C@H](NC(=O)[C@H](C(C)C)N(C)C(C)=O)C(=O)N1CCC[C@H](N1)C(=O)OCC(C)(C)C2
recordedResult: < 5.00

molecule: CCn1c(-c2cccnc2[C@H](C)OC)c2c3cc(ccc31)-c1cc(O)cc(c1)C[C@H](NC(=O)[C@H](C(C)C)N(C)C(=O)C13CCC(CO1)C3)C(=O)N1CCC[C@H](N1)C(=O)OCC(C)(C)C2 [Compound A410]
recordedResult: 7.00 to 8.00

molecule: CCn1c(-c2cnccc2COC)c2c3cc(ccc31)-c1cc(O)cc(c1)C[C@H](NC(=O)[C@@H](NC(=O)c1ncco1)C(C)C)C(=O)N1CCC[C@H](N1)C(=O)OCC(C)(C)C2
recordedResult: 5.00 to 6.00

Input: Identify measured pIC50 associated with CCn1c(-c2cccnc2[C@H](C)OC)c2c3cc(ccc31)-c1cc(O)cc(c1)C[C@H](NC(=O)[C@@H]1[C@H](C)CCN1C(C)=O)C(=O)N1CCC[C@H](N1)C(=O)OCC(C)(C)C2
Output: 6.00 to 7.00

Input: Specify reported pIC50 for the molecule shown: CCn1c(-c2cccnc2[C@H](C)OC)c2c3cc(ccc31)-c1csc(n1)C[C@H](NC(=O)[C@H](C(C)C)N(C)C(=O)N1CCCC3(CN(C)C3)C1)C(=O)N1CCC[C@H](N1)C(=O)OCC(C)(C)C2
Output: 6.00 to 7.00

These entries and their values trace back to patent US20250195521A1.
